# System: Streptococcus pneumoniae 49619 (SPN 49619)
# method.summary: Minimum Inhibitory Concentration (MIC) determination, agar with 5% sheep blood
# Assay type: cell-based
# details: Mueller Hinton agar containing 5% sheep blood
Readings of MIC for the listed compounds
Just the number please, in µg/mL, no unit attached.

Please look up its MIC: CC(=O)NC[C@H]1CN(c2ccc(N3CCC(O)(CN=[N+]=[N-])CC3)c(F)c2)C(=O)O1
2

Please look up its MIC: CC(=O)NC[C@H]1CN(c2ccc(N3CCC(F)(COS(C)(=O)=O)CC3)c(F)c2)C(=O)O1
0.25

Please look up its MIC: CS(=O)(=O)OC[C@H]1CN(c2cc(F)c(N3CCC(=O)CC3)c(F)c2)C(=O)O1
0.5

Please look up its MIC: CC(=O)NC[C@H]1CN(c2ccc(N3CCC4(CC3)COCO4)c(F)c2)C(=O)O1
2
